# Test system: MDA-MB-231
# protocol: NCI tumour cell line growth inhibition, 48 h
Activity calls are given as the source filed them. Cut-off read from the data, not from the text of the source: active = GI50 up to about 1.1 µM and inactive = higher.
Reply using exactly one outcome from True = active, False = inactive

Look up the recorded call for CN(C)CCCC12CCCCC1=Nc1ccccc12 (stereo unspecified) in this test. False

Look up the recorded call for C/N=C(N)/N=C(\N)Nc1cc2ccccc2c2ccccc12 in this test. False

Look up the recorded call for C/C(=N\Nc1nc2ccccc2s1)c1cnccn1 in this test. True

Look up the recorded call for Cc1cc(C)c(C2=NOC(c3ccccc3)(c3cc(=O)n(-c4ccccc4)s3)O2)c(C)c1 (stereo unspecified) in this test. False

Look up the recorded call for O=C1CC2(CCN(Cc3ccccc3)CC2)C(=O)N1N1CCCCC1 in this test. False

Look up the recorded call for COc1ccc2cc1Oc1ccc(cc1)C(Sc1ccccc1)CCOC(=O)CC2 (stereo unspecified) in this test. False

Look up the recorded call for O=c1c(C(c2ccc3ccccc3c2)c2c(O)oc3ccccc3c2=O)c(O)oc2ccccc12 in this test. False

Look up the recorded call for CCn1c(SCC(=O)NNC(=S)Nc2ccc(Cl)cc2)nc2ccccc2c1=O in this test. False

Look up the recorded call for COc1cc(Cc2cnc(N)nc2N)cc(OC)c1OCCCNc1ccc([N+](=O)[O-])cc1 in this test. False

Look up the recorded call for Cc1ccc(O)c(C(c2cccc(C(c3cc(C)ccc3O)c3cc(C)ccc3O)c2)c2cc(C)ccc2O)c1 in this test. False

Look up the recorded call for Cc1ccc(C(=O)N/N=C(\N=N\c2cccc([N+](=O)[O-])c2)c2ccc(N(C)C)cc2)cc1 in this test. False

----------
# System: CCRF-CEM
# protocol: NCI tumour cell line growth inhibition, 48 h
Active and inactive are the calls of the source. Rule as the data show it: active = GI50 up to about 1.1 µM and inactive = higher.
Would you kindly list GI50 for each of these compounds?

Value of measured GI50 for the entry Cc1cc(NCC2CC/C(=C\C=C\c3ccccc3)C2=O)no1 (stereo not drawn) : > 100 µM (inactive)

Value of measured GI50 for the entry O=C(/C=C/c1ccsc1)c1ccc(Cl)cc1 : 21.9 µM (inactive)

Value of measured GI50 for the entry N#CC(C#N)/N=C/c1ccncc1 : 28.7 µM (inactive)

Value of measured GI50 for the entry C=C1C(=O)OC2CC1C(OC(=O)/C=C/c1ccccc1)C/C(C)=C/CC/C(C)=C/CCC2(C)O (stereo not drawn) : 0.372 µM (active)

Value of measured GI50 for the entry CC(=S)NC=C(C(N)=O)C(N)=O : > 100 µM (inactive)

Value of measured GI50 for the entry CCOC(=O)CCC(NC(=O)N1CCN(c2c(C)nc(C)nc2O)CC1)C(=O)OCC (stereo not drawn) : > 100 µM (inactive)

Value of measured GI50 for the entry COC(=O)/N=[N+](\[O-])C(c1ccccc1)c1ccccc1 : 82 µM (inactive)

Value of measured GI50 for the entry Cc1ccccc1[P+](C)(c1ccccc1C)c1ccccc1C : 0.0333 µM (active)

Value of measured GI50 for the entry CC(=O)N[C@@H](Cc1ccc(O)cn1)C(=O)NCc1cccc(Cl)c1 : > 100 µM (inactive)

Value of measured GI50 for the entry O=c1/c(=C/c2ccc(Cl)cc2Cl)sc2nc3ccccc3n12 : > 100 µM (inactive)

Value of measured GI50 for the entry C/C(CC1SCCCS1)=C(/C)CC1SCCCS1 : > 100 µM (inactive)

Value of measured GI50 for the entry CCNCC(O)COc1ccc2c(c1)[n+]([O-])nc(N)[n+]2[O-] (stereo not drawn) : 19 µM (inactive)

Value of measured GI50 for the entry CN(C)CCNCCCNc1c2ccccc2nc2cccc([N+](=O)[O-])c12 : < 0.0121 µM (active)

Value of measured GI50 for the entry CCOC(=O)[C@@]12NN=N[C@@H]1[C@H]1CO[C@H](c3ccccc3)N1C2=O : 7.1 µM (inactive)

Value of measured GI50 for the entry Cc1nc2c(O)cc3c4c([nH]c3c2nc1C)C(=O)CCC4 : 4.07 µM (inactive)

Value of measured GI50 for the entry Nc1nc(Cl)cc(OCC2(CO)CC=CC2)n1 : > 100 µM (inactive)

Value of measured GI50 for the entry CCN(CC)CC(=O)/C=C/c1ccc(C)cc1 : 2.93 µM (inactive)

Value of measured GI50 for the entry CC(=O)NC(CCC(=O)C=[N+]=[N-])C(=O)O (stereo not drawn) : > 100 µM (inactive)

----------
# Test system: DU-145
# protocol: NCI tumour cell line growth inhibition, 48 h
Calls of active or inactive are those of the source. Rule as the data show it: active = GI50 up to about 1.1 µM and inactive = higher.
result-type: GI50

Value of measured GI50 for the entry CCN(CC)CCNC(=O)c1cn2c(ccc3sc4ccccc4c(=O)c32)n1 : 12 µM (inactive)

Value of measured GI50 for the entry COc1ccc(OC)c([N+](=O)[O-])c1-c1nc2sccn2c1/C=N/N=C(N)N : > 100 µM (inactive)

Value of measured GI50 for the entry Nc1nc(Cl)cc(OCC2(CO)CC=CC2)n1 : > 100 µM (inactive)

Value of measured GI50 for the entry Cc1cc(NCC2CC/C(=C\C=C\c3ccccc3)C2=O)no1 (centres undefined) : > 100 µM (inactive)

Value of measured GI50 for the entry COC(=O)C[C@@H]1C(C)(C)[C@@H]2O[C@@]34C[C@@H]2C(=O)[C@]1(C)[C@H]3CC[C@@]1(C)[C@H](c2ccoc2)OC(=O)C[C@]14O : > 100 µM (inactive)

Value of measured GI50 for the entry Cc1ccc(O)c(C(c2cccc(C(c3cc(C)ccc3O)c3cc(C)ccc3O)c2)c2cc(C)ccc2O)c1 : 1.44 µM (inactive)

Value of measured GI50 for the entry CCOC(=O)C1C=C1C(C)(C)O (centres undefined) : > 10 µM (inactive)

Value of measured GI50 for the entry O=C(O)[C@@H]1NC[C@H]2C(Br)=NO[C@H]21 : > 100 µM (inactive)

Value of measured GI50 for the entry Cc1ccc(C(=O)N/N=C(\N=N\c2cccc([N+](=O)[O-])c2)c2ccc(N(C)C)cc2)cc1 : 16.6 µM (inactive)

Value of measured GI50 for the entry C/C(=N\Nc1nc2ccccc2o1)c1ccncn1 : 1.26 µM (inactive)

Value of measured GI50 for the entry CC1CC[C@@]2(OC1)OC1C[C@H]3[C@@H]4C/C(=N\N(C)C)[C@@]5(O)CC(O)CC[C@]5(C)[C@H]4CC[C@]3(C)C1[C@@H]2C (some centres undefined) : > 100 µM (inactive)

Value of measured GI50 for the entry C=CC(CBr)CCC(Br)C(C)(C)Br (centres undefined) : > 10 µM (inactive)

Value of measured GI50 for the entry CCOC(=O)[C@@]12NN=N[C@@H]1[C@H]1CO[C@H](c3ccccc3)N1C2=O : 13.8 µM (inactive)

Value of measured GI50 for the entry C/C(CC1SCCCS1)=C(/C)CC1SCCCS1 : > 100 µM (inactive)

Value of measured GI50 for the entry COC(=O)C1C(=O)C(C(=O)OC)C2CCC1N2C (centres undefined) : 28.8 µM (inactive)

Value of measured GI50 for the entry O=C(O)c1ccc(CNCc2ccccc2)cc1 : > 100 µM (inactive)

Value of measured GI50 for the entry C=C1C(=O)OC2CC1C(OC(=O)/C=C/c1ccccc1)C/C(C)=C/CC/C(C)=C/CCC2(C)O (centres undefined) : 1.68 µM (inactive)

Value of measured GI50 for the entry CC1=NC2(CCCCC2)N(Cl)C(=O)C1SC#N (centres undefined) : 25.2 µM (inactive)

Value of measured GI50 for the entry O=c1[nH]c(=O)n(C2OC(CO)C(O)C2O)c2ccsc12 (centres undefined) : > 100 µM (inactive)

Value of measured GI50 for the entry CCC1(CC)CC(=NNS(=O)(=O)c2ccc(C)cc2)C1 : > 100 µM (inactive)

Value of measured GI50 for the entry CCOC(=O)C1=C(C)N(c2ccc(Cl)cc2)C2(O)C=CC(Nc3ccc(Cl)cc3)=C3C(=O)N(c4ccccc4)C(=O)C312 (centres undefined) : 4.27 µM (inactive)

Value of measured GI50 for the entry COc1ccc2c(c1)c1c(n2CCN2CCCCC2)-c2ccccc2CC1 : 32.1 µM (inactive)

Value of measured GI50 for the entry CC(=N/NC(=S)Nc1c(C)n(C)n(-c2ccccc2)c1=O)/C(C)=N\NC(=S)Nc1c(C)n(C)n(-c2ccccc2)c1=O : > 100 µM (inactive)

Value of measured GI50 for the entry COc1ccc(/N=N/c2ccc3oc(=O)c(C(=O)Nc4ccc(Cl)cc4)cc3c2)cc1 : > 10 µM (inactive)

----------
# Tested on: OVCAR-4
# protocol: NCI tumour cell line growth inhibition, 48 h
Calls of active or inactive are those of the source. Rule as the data show it: active = GI50 up to about 1.1 µM and inactive = higher.
result-type: GI50

Value of measured GI50 for the entry O=C(O)[C@@H]1NC[C@H]2C(Br)=NO[C@H]21 : > 100 µM (inactive)

Value of measured GI50 for the entry Nc1ccn(C2OC(CO)C(O)C2O)c(=O)c1 (stereo not drawn) : 285 µM (inactive)

Value of measured GI50 for the entry CC12CCC(C(=O)OC1=O)C(C)(C)O2 (stereo not drawn) : > 100 µM (inactive)

Value of measured GI50 for the entry CCn1c(SCC(=O)NNC(=S)Nc2ccc(Cl)cc2)nc2ccccc2c1=O : 40 µM (inactive)

Value of measured GI50 for the entry COc1cc(C(=O)O)c(-c2cc3c(cc2C=O)OCO3)c(OC)c1OC : > 10 µM (inactive)

Value of measured GI50 for the entry CCOc1ccc(-n2nnc3c(N)nc(N)nc32)cc1 : > 100 µM (inactive)

Value of measured GI50 for the entry O=S(=O)(O)c1ccc2c(/N=N\c3ccc(F)cc3)c(O)c(S(=O)(=O)O)cc2c1 : > 100 µM (inactive)

Value of measured GI50 for the entry O=c1/c(=C/c2ccc(Cl)cc2Cl)sc2nc3ccccc3n12 : > 100 µM (inactive)
